test: self-splicing fitness, log relative to wild type (ln ratio); higher = more splicing; Tetrahymena group I intron in knt gene, E. coli kanamycin selection, DiMSum; sequences stand for … in CUCUCU…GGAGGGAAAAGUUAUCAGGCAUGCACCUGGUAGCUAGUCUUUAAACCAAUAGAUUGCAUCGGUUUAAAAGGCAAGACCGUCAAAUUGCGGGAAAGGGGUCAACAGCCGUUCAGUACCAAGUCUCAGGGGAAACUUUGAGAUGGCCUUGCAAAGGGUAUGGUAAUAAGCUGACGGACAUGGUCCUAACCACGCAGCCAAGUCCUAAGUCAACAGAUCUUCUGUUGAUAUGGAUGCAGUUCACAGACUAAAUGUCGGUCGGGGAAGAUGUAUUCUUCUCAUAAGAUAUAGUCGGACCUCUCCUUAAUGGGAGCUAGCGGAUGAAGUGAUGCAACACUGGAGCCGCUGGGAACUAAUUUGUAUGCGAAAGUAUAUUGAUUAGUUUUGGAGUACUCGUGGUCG; conditions: 30 °C;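 note: selection with 25 µg/mL kanamycin versus none on LB agar overnight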
Everything with self-splicing fitness (ln) lower than -3 is F; everything else, including exactly -3, is T.

input: # bool: self-splicing fitness (ln) of "CGCUAGCAAUAUUACGCAAG" >= -3
output: F

input: # bool: self-splicing fitness (ln) of "CUUCAGCAAUAUUACGCGCC" >= -3
output: F

input: # bool: self-splicing fitness (ln) of "GACAAGCAAUAUUACGACGG" >= -3
output: F

input: # bool: self-splicing fitness (ln) of "CUCGAGCAAUAUUACGAGCU" >= -3
output: F

input: # bool: self-splicing fitness (ln) of "CGAGAGCAAUAUUACGUCAC" >= -3
output: F

input: # bool: self-splicing fitness (ln) of "UAUAAGCAAUAUUACGUGGG" >= -3
output: T

input: # bool: self-splicing fitness (ln) of "CUCAAGCAAUAUUACGUUUC" >= -3
output: F

input: # bool: self-splicing fitness (ln) of "AGGUAGCAAUAUUACGUAAU" >= -3
output: T

input: # bool: self-splicing fitness (ln) of "AUUAAGCAAUAUUACGGGCA" >= -3
output: T

input: # bool: self-splicing fitness (ln) of "AUUAAGCAAUAUUACGCCGU" >= -3
output: T

input: # bool: self-splicing fitness (ln) of "CUGCAGCAAUAUUACGGAUG" >= -3
output: T

input: # bool: self-splicing fitness (ln) of "UUGUAGCAAUAUUACGCGAU" >= -3
output: F

input: # bool: self-splicing fitness (ln) of "UUGAAGCAAUAUUACGAAAU" >= -3
output: F

input: # bool: self-splicing fitness (ln) of "UGUCAGCAAUAUUACGUGUU" >= -3
output: F

input: # bool: self-splicing fitness (ln) of "GCAGAGCAAUAUUACGGAUC" >= -3
output: T

input: # bool: self-splicing fitness (ln) of "UGACAGCAAUAUUACGUCGG" >= -3
output: T

input: # bool: self-splicing fitness (ln) of "AUGUAGCAAUAUUACGAGUU" >= -3
output: T

input: # bool: self-splicing fitness (ln) of "GUUUAGCAAUAUUACGGCUU" >= -3
output: T

input: # bool: self-splicing fitness (ln) of "CUUUAGCAAUAUUACGCUAA" >= -3
output: F

input: # bool: self-splicing fitness (ln) of "GGAAAGCAAUAUUACGUCUC" >= -3
output: F

input: # bool: self-splicing fitness (ln) of "UUGGAGCAAUAUUACGCAUG" >= -3
output: F
